- Tested on: K562 chronic myelogenous leukemia cells
- PROTOCOL: MTT cytotoxicity assay, K562
- Type: cell-based, human
- MEASUREMENT SETUP: Homo sapiens, 48 h exposure, read-out: IC50 ± SD, K562
pIC50: −log10 of the molar value.

{"columns": ["CHEMICAL STRUCTURE", "pIC50"],
 "data": [
  ["O=C(NCP(=O)(c1ccccc1)c1ccccc1)c1ccccn1", "< 4.10"]
]}

----------
- Test system: U251 glioblastoma cells
- PROTOCOL: MTT cytotoxicity assay, U251
- Assay type: cell-based, human
- MEASUREMENT SETUP: 48 h exposure, read-out: IC50 ± SD, U251

{"columns": ["MOLECULE", "COMPARISON SIGN", "IC50, µM"],
 "data": [
  ["O=C(c1ccccn1)[N]([Pd][Cl])C(c1ccccc1)P(=O)(c1ccccc1)c1ccccc1 (stereo not drawn) [complex 3b, [κ^3-O,N,N-(L)Pd(II)Cl]]", "=", 43],
  ["N.N.[Cl][Pt][Cl] [Cisplatin, reference compound]", "=", 16.5],
  ["O=C(c1ccccn1)[N](CP(=O)(c1ccccc1)c1ccccc1)[Pd][Cl] [complex 3a, [κ^3-O,N,N-(L)Pd(II)Cl]]", ">", 80]
]}

----------
pIC50: recorded values
- Test system: AMO1 multiple plasmacytoma cells
- PROTOCOL: MTT cytotoxicity assay, AMO1
- Assay type: cell-based, human
- MEASUREMENT SETUP: AMO1, MTT, 48 h exposure; read-out: IC50 ± SD, AMO1
pIC50: −log10 of the molar value.

{"columns": ["COMPOUND", "pIC50"],
 "data": [
  ["N.N.[Cl][Pt][Cl] [Cisplatin, reference compound]", 5.49],
  ["O=C(c1ccccn1)[N]([Pd][Cl])C(c1ccccc1)P(=O)(c1ccccc1)c1ccccc1 (stereo not drawn) [complex 3b, [κ^3-O,N,N-(L)Pd(II)Cl]]", 5.57],
  ["O=C(c1ccccn1)[N](CP(=O)(c1ccccc1)c1ccccc1)[Pd][Cl] [complex 3a, [κ^3-O,N,N-(L)Pd(II)Cl]]", 4.49]
]}

----------
- Test system: H9 acute lymphoblastic leukemia cells
- PROTOCOL: MTT cytotoxicity assay, H9
- Format: cell-based, human
- MEASUREMENT SETUP: Homo sapiens, 48 h exposure, read-out: IC50 ± SD, H9

{"columns": ["CHEMICAL STRUCTURE", "IC50"],
 "data": [
  ["O=C(NCP(=O)(c1ccccc1)c1ccccc1)c1ccccn1", "> 80 µM"]
]}

----------
- Tested on: HCT116 colorectal carcinoma cells
- PROTOCOL: MTT cytotoxicity assay, HCT116
- Type: cell-based, human
- MEASUREMENT SETUP: Homo sapiens, HCT-116, 48 h exposure, read-out: IC50 ± SD, HCT116

{"columns": ["CHEMICAL STRUCTURE", "IC50"],
 "data": [
  ["O=C(NCP(=O)(c1ccccc1)c1ccccc1)c1ccccn1", "> 100 µM"]
]}

----------
- Tested on: U251 glioblastoma cells
- PROTOCOL: MTT cytotoxicity assay, U251
- Format: cell-based, human
- MEASUREMENT SETUP: Homo sapiens, U-251, 48 h exposure, read-out: IC50 ± SD, U251

{"columns": ["MOLECULE", "IC50"],
 "data": [
  ["O=C(NCP(=O)(c1ccccc1)c1ccccc1)c1ccccn1 [ligand 1a]", "> 100 µM"]
]}
